B1: CPEB3 Ribozyme (parent)
chain: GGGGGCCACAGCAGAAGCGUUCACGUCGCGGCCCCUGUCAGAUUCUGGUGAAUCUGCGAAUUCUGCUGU

- Variants of: B1
- EXPERIMENTAL_PROTOCOL: self-cleavage, relative activity (ratio to wild type); higher = more cleavage; co-transcriptional
Answer False if self-cleavage is under 0.5, and True if it is 0.5 or more.

Solved entries:
| SEQUENCE_CHAIN | LABEL_CLASS |
| --- | --- |
| GGGGGCCACAACAGAAGCGUGCACGUCGCGGCCCCUGUCAGAUUCUGGUGAAUCUGCGAAUUCUGCUGU | False |
| GGGGGCCACAGCAGAAGCGUUCACGUCGCGGCCCCUGUCAGAUCCUGGUGAAUCUGCGAAUUCCGCUGU | True |
| GGGGGCCACAGCAGAAGCGUUCACGUCGCGGCCCCUGUCAGAUUCUGGUCAUUCUGCGAAUUCUGCUGU | True |
| GGGGGCCACAGCAGAAGCGUUCACGUCGCGGCCCCUGUCAGAUUCUAGUGAAUCUGCGGAUUCUGCUGU | True |
| GGGGGCCACAGCAGAAGCGUUCACGUCGCGGCCCCUGUCAGAUUCUGGGGAAUGUGCGAAUUCUGCUGU | True |
| GGGGGUCACAGCAGAAGCGUUAACGUCGCGGCCCCUGUCAGAUUCUGGUGAAUCUGCGAAUUCUGCUGU | False |

From here, focus on the item given below.
*Q* In plain terms: is recorded self-cleavage at least 0.5 for "GGGGGCCACAGCAGAAGCGUUCACGUCGCGGCCCCUGUCAGAUUUUGGUGAAUCUGCUAAUUCUGCUGU" ?
*A* True
